Entry source: patent US5852049A

Quick reference: pKi of the listed items.
# assayed system: human 5HT1A (Homo sapiens, UniProt P08908)
# Construct: expressed in transfected cells; host or cells: HeLa HA7
# test method notes: binding to human 5HT1A receptor (HeLa HA7 cell line)
# test conditions: human receptor, HeLa HA7, [3H]-8OH-DPAT 1 nM; read-out: Ki 5HT1A
pKi: −log10 of the molar value. Structures can show the parent of a compound that is named as a salt.

{"molecule": "CNS(=O)(=O)CCc1ccc2[nH]cc(C3CCN(C)CC3)c2c1 [Naratriptan, reference compound]", "pKi": 7.34}
{"molecule": "N#CCCCCCOc1ccc2[nH]cc(CCN)c2c1 [Example 17, hydrochloride]", "pKi": 7.61}

====

# assayed system: human 5HT1A (Homo sapiens)
# Construct: expressed in transfected cells; host or cells: HeLa HA7
# Sequence (P08908 1-422): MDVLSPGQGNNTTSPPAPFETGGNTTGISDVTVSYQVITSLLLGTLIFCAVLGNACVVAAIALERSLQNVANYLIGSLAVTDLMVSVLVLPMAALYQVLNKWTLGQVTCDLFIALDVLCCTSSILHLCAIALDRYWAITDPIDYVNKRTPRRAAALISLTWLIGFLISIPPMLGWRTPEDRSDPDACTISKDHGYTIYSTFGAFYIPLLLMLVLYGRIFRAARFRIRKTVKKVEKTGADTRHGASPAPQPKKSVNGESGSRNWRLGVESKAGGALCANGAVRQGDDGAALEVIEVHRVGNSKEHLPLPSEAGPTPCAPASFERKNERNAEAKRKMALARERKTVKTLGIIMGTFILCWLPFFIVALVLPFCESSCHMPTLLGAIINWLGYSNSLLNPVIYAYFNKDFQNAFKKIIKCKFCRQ
# test method notes: binding to human 5HT1A receptor (HeLa HA7 cell line)
Where a name gives a salt, the structure may show the parent alone.

{"compound": "CS(=O)(=O)NCCCCCCOc1ccc2[nH]cc(CCN)c2c1 [Example 19, hydrochloride]", "assayed system": "human 5HT1A (Homo sapiens)", "readout units": "nM", "Ki": 11.5}
{"compound": "CC(=O)OCCCCOc1ccc2[nH]cc(CCN)c2c1 [Example 23, hydrochloride]", "assayed system": "human 5HT1A (Homo sapiens)", "readout units": "nM", "Ki": 40}
{"compound": "NCCCCCCOc1ccc2[nH]cc(CCN)c2c1 [Example 18, hydrochloride]", "assayed system": "human 5HT1A (Homo sapiens)", "readout units": "nM", "Ki": 78.6}
{"compound": "CC(C)OC(=O)CCCCCOc1ccc2[nH]cc(CCN)c2c1 [Example 16, hydrochloride]", "assayed system": "human 5HT1A (Homo sapiens)", "readout units": "nM", "Ki": 9}
